Values from patent US7834013B2

Assay target: GPR40 (Homo sapiens)
Sequence (O14842 whole entry, the tested form may be a part): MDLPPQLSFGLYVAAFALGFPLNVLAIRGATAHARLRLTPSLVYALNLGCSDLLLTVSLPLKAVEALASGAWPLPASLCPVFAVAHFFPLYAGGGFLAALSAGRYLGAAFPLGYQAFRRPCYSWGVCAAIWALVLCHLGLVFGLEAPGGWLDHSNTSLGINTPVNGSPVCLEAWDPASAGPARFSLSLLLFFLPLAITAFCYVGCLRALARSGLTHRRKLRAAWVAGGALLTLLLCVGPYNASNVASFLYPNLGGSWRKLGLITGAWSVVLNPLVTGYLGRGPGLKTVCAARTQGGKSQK
Experiment: GPR40 SAR Primary Assay (Elk-1/Gal4-luc+ reporter, luciferase activity)
Conditions used: stable GPR40 Elk-1/Gal4-luc+ CHO cell line, 5 hours incubation
Structures can show the parent of a compound that is named as a salt.
Attribute measured: pEC50
# pEC50: negative log10 of molar concentration; output just the value

Example entries and their recorded answers appear below.
Write down the reported pEC50 of Cc1nc(-c2ccc(C(F)(F)F)cc2)sc1CNc1ccc([C@@H]2C[C@H]2C(=O)NO)cc1 (single isomer, unassigned) [Example 41] , test system: GPR40 (Homo sapiens).
8.20

Lab note: need pEC50 for Cc1nc(-c2ccc(C(F)(F)F)cc2)sc1CNc1ccc([C@@H]2C[C@H]2C(=O)NC(C)C)cc1 (racemic) [Example 45] on GPR40 (Homo sapiens), anyone have it?
8.00

Give GPR40 (Homo sapiens) pEC50 for O=C(O)C1CC1c1ccc(NCc2cccc(Oc3ccccc3)c2)cc1 (single isomer, unassigned; (+)) [Example 26]
8.40

Lab request: please report pEC50 under test system GPR40 (Homo sapiens) for CC(C)NC(=O)C1CC1c1ccc(NCc2cccc(Oc3ccccc3)c2)cc1 (single isomer, unassigned; (+)) [Example 44]
8.00

# value lookup — system GPR40 (Homo sapiens), readout pEC50, item O=C(O)C1CC1c1ccc(NCc2cccc(Oc3ccc(Cl)c(Cl)c3)c2)cc1 (single isomer, unassigned; (+)) [Example 28a, Trifluoroacetate]
8.50

Which measured pEC50 belongs to Cc1nc(-c2ccc(C(F)(F)F)cc2)sc1CNc1ccc([C@@H]2C[C@H]2C(=O)O)cc1 (racemic) [Example 13] , tested on GPR40 (Homo sapiens)?
7.70

I'm curious: which pEC50 was measured for O=C(O)C1CC1c1ccc(NCc2cccc(Oc3cc(Cl)cc(Cl)c3)c2)cc1 (racemic) [Example 8] tested on GPR40 (Homo sapiens)?
8.20

Which measured pEC50 belongs to O=C(O)[C@@H]1C[C@H]1c1ccc(NCc2ccc(-c3ccc(C(F)(F)F)cc3)s2)cc1 (racemic) [Example 19, Trifluoroacetate] , tested on GPR40 (Homo sapiens)?
7.20

We next turn to a different compound, shown below.
For GPR40 (Homo sapiens), provide pEC50 of O=C(NCCN1CCOCC1)[C@@H]1C[C@H]1c1ccc(NCc2cccc(Oc3ccccc3)c2)cc1 (racemic) [Example 50] please.
6.60
